test: gradient 5% acetonitrile 3 min, to 50% in 2 min, to 85% in 15 min, held 3 min, 100 µL/min; conditions: column: Zorbax Extend-C18 2.1 x 50 mm; eluents: water / acetonitrile, 0.1% formic acid
Returns the class for an entry based on its RP-LC retention time. Class ranges: low = under 800 s, medium = from 800 s up to 1000 s, high = 1000 s and over

As a guide, the following entries are already answered.
Form field 'band' for O=C(c1nnc(-c2ccc(S(=O)(=O)N3CCCC3)cc2)o1)N1CCCCC1
medium

Form field 'band' for Cc1ccc(Sc2nccnc2N2CCCC(C(=O)Nc3ccc(C)c(F)c3)C2)cc1 (centres undefined)
high

Form field 'band' for Cc1ccc(N2C(=O)CCS2(=O)=O)cc1S(=O)(=O)N1CCN(c2ccccn2)CC1
low

Form field 'band' for CCCc1noc(-c2cccnc2-n2cnc(C(=O)Nc3cc(C)cc(C)c3)c2)n1
high

Form field 'band' for O=C(NCc1ccc2c(c1)OCO2)C1CCCN(c2nnc3ccc(Cl)cn23)C1 (centres undefined)
low

***
Form field 'band' for Cc1cc(-c2nc(-c3ccc(F)cc3)no2)c(C)n1CC(=O)N1CCCC(C)C1 (centres undefined)
high

Form field 'band' for CC(=O)N1c2ccc(S(=O)(=O)N3CCCC3)cc2CC1C(=O)NC1CCCCCCC1 (centres undefined)
medium

----------
test: gradient 5% acetonitrile 3 min, to 50% in 2 min, to 85% in 15 min, held 3 min, 100 µL/min; conditions: column: Zorbax Extend-C18 2.1 x 50 mm; eluents: water / acetonitrile, 0.1% formic acid
Returns the class for an entry based on its RP-LC retention time. Class ranges: small value (below 800 s), mid value (800 s to below 1000 s), large value (1000 s or more)

As a guide, the following entries are already answered.
Form field 'band' for CCOC(=O)CNC(=O)N1CC(n2cc(COc3ccc(F)cc3)nn2)C1
small value

Form field 'band' for O=S(=O)(c1cc(-c2nnc(C3CC3)o2)co1)N1CCN(C2CCCCC2)CC1
small value

Form field 'band' for CCN(CC)S(=O)(=O)c1ccc(C)c(-c2nnc(-c3ccc(F)cc3)o2)c1
large value

Form field 'band' for CCCCc1cc(=O)oc2cc(C)cc(OCC(=O)N3CCC4(O)CCCCC4C3)c12 (stereo not drawn)
mid value

Form field 'band' for COC(=O)c1ncn2c1C(=O)N(Cc1ccccc1)C(C)(C(=O)NCc1ccccc1)C2 (stereo not drawn)
small value

Form field 'band' for Cn1nc(-c2nnc(-c3ccccc3)o2)c2c1CCN(S(=O)(=O)c1ccc3c(c1)CCC3)C2
small value

Form field 'band' for CCOC(=O)c1c(C)c(CCC(=O)N2CCC(C)CC2)n(C)c1C
mid value

Form field 'band' for CC(=O)Nc1ccc(NC(=O)c2cccc(N3C(=O)NC4CC3(C)Oc3ccc(Cl)cc34)c2)cc1 (stereo not drawn)
small value

***
Form field 'band' for CN(C)C(=O)c1cc(N(C)C)nc2ccc(F)cc12
small value

Form field 'band' for COC(=O)c1c(-c2ccc(Cl)cc2)noc1NCCN1CCN(C)CC1
small value

Form field 'band' for CCn1cc(C(=O)NCc2ccccc2C)c(S(=O)(=O)N2CCSCC2)n1
large value

----------
assay: gradient 5% acetonitrile 3 min, to 50% in 2 min, to 85% in 15 min, held 3 min, 100 µL/min; settings: column: Zorbax Extend-C18 2.1 x 50 mm; eluents: water / acetonitrile, 0.1% formic acid
Returns the class for an entry based on its RP-LC retention time. Class ranges: bin 1 = under 700 s, bin 2 = from 700 s up to 800 s, bin 3 = 800 s and over

Form field 'band' for N#CCCN1CCN(c2cc(C(=O)O)c3cc(NC(=O)c4cccc(Cl)c4)ccc3n2)CC1
bin 1

***
Form field 'band' for CCn1nc(C)c(CCNC(=O)c2ccc3c(c2)N(C)C(=O)C2CCCCN32)c1C (centres undefined)
bin 1

Form field 'band' for O=C(NCc1ccc(N2CCOCC2)cc1)c1cn2c(n1)CCCC2
bin 1

Form field 'band' for O=S(=O)(c1ccc2c(c1)CCC2)N1CCC2(CC1)CC(Cc1nc(-c3cnccn3)no1)CCO2 (centres undefined)
bin 3

Form field 'band' for COc1ccc(-c2nc3ncccn3c2NCc2ccc(C)cc2)cc1
bin 2

Form field 'band' for COc1ccc(CCNc2nc(-c3ccccc3)cs2)cc1OC
bin 3

Data provenance is the METLIN SMRT retention time set (Domingo-Almenara et al. 2019).
